Give TGI for every item shown.
Tested on: CCRF-CEM leukemia
Test: NCI tumour cell line growth inhibition, 48 h

Data request: What does the record list as TGI for CCc1cccc(C)c1NC(=O)NS(=O)(=O)c1ccc(C)cc1 ?
Data returned: > 100 µM

Fill in TGI for each of the 2 compounds listed.
1. O=c1[nH]c(-c2ccc(C(F)(F)F)cc2)nc2c1CSCC2
2. COc1ccc(NC2=NCCO2)c2ccccc12

Data returned:
1. > 100 µM
2. > 10 µM

Fill in TGI for each of the 3 compounds listed.
1. CC1(C)OCN(c2ccc(Cl)cc2)Cn2c1nc1ccccc12
2. CCC1(CN(C)C)CC/C(=C\c2ccc3c(c2)OCO3)C1=O (stereo unspecified)
3. O=C(/C=C/c1ccc(O)c(O)c1)OCCOC(=O)/C=C/c1ccc(O)c(O)c1

Data returned:
1. > 100 µM
2. > 100 µM
3. > 100 µM

###

System: OVCAR-3 ovarian
Assay: NCI tumour cell line growth inhibition, 48 h
QUANTITY_KIND: GI50

Fill in GI50 for each of the 6 molecules listed.
1. O=C1/C(=C/c2cccs2)CCC/C1=C\c1cccs1
2. Cn1ccnc1C(=O)/C=C/c1ccc(C(=O)Nc2nc3ccccc3[nH]2)cc1
3. Cn1c(=O)c2[nH]c(COc3ccc(C(C)(C)C)cc3)nc2n(C)c1=O
4. O=c1[nH]c(-c2ccc(C(F)(F)F)cc2)nc2c1CSCC2
5. C=C(C)[C@H]1CC/C(C)=C/CCC(C)C(=O)CC/C(CO)=C\[C@@H]1O (some centres not stated)
6. CN(Cc1cnc2nc(N)nc(N)c2n1)c1ccc(C(=O)NC(CCC(=O)O)C(=O)O)cc1 (configuration not stated)

Data returned:
["23800 nM", "894 nM", "12300 nM", "27000 nM", "> 100000 nM", "1230 nM"]

Fill in GI50 for each of the 8 molecules listed.
1. Oc1c(CN2CCCC2)cc(COCc2ccccc2)c2cccnc12
2. COc1ccccc1-n1c(SCc2cc(OC)c(OC)c(OC)c2)nc2ccc(Cl)cc2c1=O
3. COc1ccc([C@H]2O[C@@H](CO)C[C@]2(O)c2ccc(OC)cc2)cc1
4. Cn1cnc([N+](=O)[O-])c1Sc1ncnc2c1ncn2C1OC(CO)C(O)C1O (configuration not stated)
5. CC#CC(=O)N1CCC[C@H]1c1nc(-c2ccc(C(=O)Nc3ccccn3)cc2)c2c(N)nccn12
6. COc1cc(C2C(C#N)=C(N)OC3=C2C(=O)c2ccccc2C3=O)cc(OC)c1OC (configuration not stated)
7. CN(C)c1ccc(/C=C/c2ccnc3ccccc23)cc1
8. C[C@H]1[C@@H](OCC(CO[C@H]2O[C@@H]3O[C@@]4(C)CC[C@H]5[C@H](C)CC[C@@H]([C@H]2C)[C@@]35OO4)=NOCC(=O)O)OC2O[C@@]3(C)CC[C@H]4[C@H](C)CC[C@@H]1[C@@]24OO3 (some centres not stated)

Data returned:
2130 nM
2210 nM
> 100000 nM
3930 nM
37200 nM
493 nM
2710 nM
< 18.8 nM

###

Test system: DU-145 prostate
Assay: NCI tumour cell line growth inhibition, 48 h
Where a SMILES comes first, the peptide text is derived from it. The star is where a group is joined. Cbz = O=C(OCc1ccccc1)*
Give TGI for every item shown.

Answered examples (10):
Data request: Write down the reported TGI of CC1OC(O)C(O)C(O)C1O (stereo not drawn) , test system: DU-145 prostate.
Data returned: > 100 µM

Data request: Quick one: c1ccc(-c2cc(-c3cc(-c4ccccc4)n(-c4ccccc4)n3)nn2-c2ccccc2)cc1
Data returned: > 100 µM

Data request: Quick one: CCOC(=O)C(C)NC(=O)C(C)NC(=O)C(C)NC(=O)C(C)NC(=O)C(C)NC(=O)C(C)NC(=O)C(C)NC(=O)OCc1ccccc1 (stereo not drawn) (Cbz-AAAAAAA-OEt; configuration not given here)
Data returned: > 100 µM

Data request: Quick one: Fc1ccc(-c2ncn(C3CCNCC3)c2-c2ccnc(Oc3cccc(F)c3)n2)cc1
Data returned: > 25 µM

Data request: Quick one: Cc1nc2c(-c3ccccc3)[nH]c(C)c2c(=O)o1
Data returned: > 100 µM

Data request: Quick one: O=C(NCc1ccccc1)c1cnc(Cl)cn1
Data returned: > 100 µM

Data request: Quick one: COc1cc2c(cc1OC)CCN=C2
Data returned: > 100 µM

Data request: Quick one: O=C(NC(Nc1ccc(F)c(Cl)c1)(C(F)(F)F)C(F)(F)F)C(C(F)(F)F)C(F)(F)F
Data returned: > 100 µM

Data request: Quick one: COc1ccc(/C=C(\C#N)c2cc3ccccc3n2C)cc1
Data returned: > 100 µM

Data request: Quick one: CC/C(Cl)=N\OC(=O)Nc1ccc(C#N)cc1
Data returned: 29.6 µM

Fill in TGI for each of the 2 molecules listed.
1. N#Cc1nc(-c2ccccc2)oc1S(=O)(=O)N1CCOCC1
2. CC/C=C\CCC/C=C1/C(=O)C=C[C@@H]1C/C=C\CCCC(=O)O

Data returned:
1. 19.1 µM
2. 23.8 µM

Data request: Write down the reported TGI of COc1ccc([C@H]2O[C@@H](CO)C[C@]2(O)c2ccc(OC)cc2)cc1 , test system: DU-145 prostate.
Data returned: > 100 µM
